Where do the numbers come from? From patent US12077503B2.

system: corn (Zea mays); assay: Test A postemergence; format: in vivo; details: 125 g ai/ha, postemergence; visual injury after approximately 10 d; 0 to 100 scale (0 no effect, 100 complete control)
Property: Plant response rating, Corn; scope: individual compounds
recorded.endpoint: Plant response rating, Corn

                                   compound  observed_measurement
0  O=C1NCC(c2cccc(Br)c2)C1C(=O)Nc1cccc(F)c1F (racemic)                    40
1  O=C1NCC(c2cccc(OC(F)(F)C(F)F)c2)C1C(=O)Nc1ccccc1Cl (racemic)                    30
2  CC(=O)c1ccccc1NC(=O)C1C(=O)NCC1c1cccc(C(F)(F)F)c1 (racemic)                     0
3  O=C1NCC(c2cccc(O)c2)C1C(=O)Nc1ccccc1F (racemic)                     0
4  O=C1NCC(c2cccc(OC(F)(F)C(F)F)c2)C1C(=O)Nc1ccccc1F (racemic)                    80
5  O=C1NCC(c2cccc(O)c2)C1C(=O)Nc1cccc(F)c1F (racemic)                     0
